METHOD_NOTES: Stability of DNPs by DLS after storage at 5° C.
Assay type: physicochemical
MEASUREMENT_PARAMETERS: after 70 days at 5° C.; IAJD 4.0 mg/mL + Luc-mRNA 0.1 mg/mL, acetate buffer
Exercise: state measured PDI for each of the compounds provided.
Answers are plain numbers.

[
  {
    "MOL": "CCCCCCCCCCCCCCCCOc1cc(COC(=O)CCCN2CCN(CCO)CC2)cc(OCCCCCCCCCCC)c1",
    "OBSERVED_MEASUREMENT": 0.289
  },
  {
    "MOL": "CCCCCCCCCCCCCCCCCCOc1cc(COC(=O)CCCN2CCN(CCO)CC2)cc(OCCCCCCCCCCC)c1",
    "OBSERVED_MEASUREMENT": 0.459
  },
  {
    "MOL": "CCCCCCCCCCCOc1cc(COC(=O)CCCN2CCN(CCO)CC2)cc(OCCCCCCCCCC)c1",
    "OBSERVED_MEASUREMENT": 0.383
  },
  {
    "MOL": "CCCCCCCCCCCCCCCCCOc1cc(COC(=O)CCCN2CCN(C)CC2)cc(OCCCCCCCCCCC)c1",
    "OBSERVED_MEASUREMENT": 0.239
  },
  {
    "MOL": "CCCCCCCCCCCOc1cc(COC(=O)CCCN2CCN(CCO)CC2)cc(OCCCCCCCC)c1",
    "OBSERVED_MEASUREMENT": 0.365
  }
]

Next, consider the following compound.
Q: Any idea what its PDI is? The compound is CCCCCCCCCCCCCOc1cc(COC(=O)CCCN2CCN(CCO)CC2)cc(OCCCCCCCCCCC)c1
Ans: 0.312
